Experiment: Stability of CYZ in plasma (short-term room temperature and freeze-thaw)
Type: in vitro ADME, human
Conditions: rat plasma, 800 ng/mL, room temperature for 6 h
recorded metric: remaining at 6 h, 800 ng/mL (%)
Entry rule: numbers only, all in %.

Give its remaining at 6 h, 800 ng/mL value. Item: CN1CCN(C(c2ccccc2)c2ccccc2)CC1 [CYZ, 1-benzhydryl-4-methylpiperazine] 96.1

----------
Assay: Pharmacokinetics of CYZ in human plasma after I.V administration (non-compartmental analysis)
Format: in vivo
Conditions: intravenous, 50 mg, after I.V injection
recorded metric: Tmax (h)
Field format: number, assumed h, no unit text.

# lookup: Tmax of CN1CCN(C(c2ccccc2)c2ccccc2)CC1 [CYZ, 1-benzhydryl-4-methylpiperazine] 2

----------
Assay: Pharmacokinetics of CYZ in human plasma after I.V administration (non-compartmental analysis)
Type: in vivo
Details: intravenous, I.V administration of Emetrex 50 mg
recorded metric: half-life (h)
Quick note: give the figure in h, leave out the unit.

Request the reported half-life associated with CN1CCN(C(c2ccccc2)c2ccccc2)CC1 [CYZ, 1-benzhydryl-4-methylpiperazine] 2.53

----------
Experiment: Pharmacokinetics of CYZ in human plasma after I.V administration (non-compartmental analysis)
Assay type: in vivo
Settings: intravenous, I.V administration of Emetrex 50 mg
recorded metric: AUC(0-t) (ng·h/mL)
Return type: number; implicit unit ng·h/mL.

AUC(0-t) lookup needed for CN1CCN(C(c2ccccc2)c2ccccc2)CC1 [CYZ, 1-benzhydryl-4-methylpiperazine] , thanks. 22300
